Attribution: PubChem BioAssay (NCI)

Overview of reported TGI across a group of molecules:
Test system: NCI/ADR-RES ovarian
Test: NCI tumour cell line growth inhibition, 48 h
assay metric: TGI

structure smiles	test value
COc1ccc(C(=O)N(C(=S)OCCOc2ccccc2)c2ccccc2)cc1	> 100 µM
CCNCCNc1cc(C2CCCCC2)c(C#N)c2nc3ccccc3n12	6.82 µM
CC(C)(C)OC(=O)N/N=C(/N)Cc1ccccc1	> 100 µM

====

Tested on: UACC-62 melanoma
Assay: NCI tumour cell line growth inhibition, 48 h; in the data active means GI50 below about 0.43 µM; inactive means the rest
Classes used: active, inactive

structure smiles	system under test	discrete label
Cc1cn2c(/C=N/Nc3ccccn3)c(-c3ccc(Cl)c([N+](=O)[O-])c3)nc2s1	UACC-62 melanoma	inactive
CN(C)c1ccc(C(=C2C=CC(=[N+](C)C)C=C2)c2ccc(N(C)C)cc2)cc1	UACC-62 melanoma	active
CC(C)c1ccc(Nc2nccc(-c3cnn4ncccc34)n2)cc1	UACC-62 melanoma	active
COc1ccc(-c2nn(-c3cccc(Cl)c3)cc2-c2cc(-c3ccccc3)nc(N)n2)cc1	UACC-62 melanoma	inactive
Nc1n[nH]c2cccc(C#Cc3cccc(C(=O)Nc4cc(CN5CCOCC5)cc(C(F)(F)F)c4)c3)c12	UACC-62 melanoma	inactive

====

Overview of reported TGI across a group of molecules:
System: MDA-MB-435
Assay: NCI tumour cell line growth inhibition, 48 h
*1 amine or outer side, *2 acyl side, *3 side chain or, on linkers, in order; H or OH if unused. Where a SMILES comes first, the peptide text is derived from it. [ ]: non-standard residue; d: D form. X33 = C=CCC(O[*:1])C(=O)[*:2]; NMeV = CN[CH](C(=O)O)C(C)C; NMeA = CN[CH](C)C(=O)O; βAla = NCCC(=O)O

molecule	system under test	TGI
CC1=N[C@](C)(C2CC3C=CC2C3=O)COC1=O (some centres not stated)	MDA-MB-435	> 100 µM
CC(C)N1C(NNC(=O)c2cnccn2)=NS(=O)(=O)c2ccccc21	MDA-MB-435	> 100 µM
CCC(/C=C/c1ccccc1)=N\Nc1ccc(Cl)c(Cl)c1	MDA-MB-435	> 100 µM
CCCc1cc(=O)n2c(C(=O)Nc3ccccc3OC)c(C(=O)Nc3ccc(F)cc3)sc2n1	MDA-MB-435	> 160 µM
CCOC(=O)Nc1nn(C)c(=NCc2ccccc2)s1	MDA-MB-435	> 100 µM
CC(C)CC(NC(=O)C(CCI)Cc1ccccc1)C(=O)Nc1ccccc1 (configuration not stated)	MDA-MB-435	> 100 µM
C=CCC1OC(=O)CCNC(=O)C(C)N(C)C(=O)C(C(C)C)N(C)C(=O)C(C(C)CC)NC(=O)C2CCCN2C1=O (configuration not stated) (cyclo([X33]PI[NMeV][NMeA][βAla]); configuration not given here)	MDA-MB-435	> 100 µM

====

System: MOLT-4 leukemia
Assay: NCI tumour cell line growth inhibition, 48 h
Overview of reported TGI across a group of compounds:

compound	TGI
COC(=O)C1=C(CCCCO[Si](C)(C)C(C)(C)C)NC(=O)N2[C@@H](CCOCc3ccccc3)CC[C@H]12	> 100 µM
Nc1c(C(=O)Nc2ccccc2)sc2nc3c(cc12)CN(Cc1ccccc1)CC3	> 100 µM
O=C(NN1C(=O)CSC1c1ccc(C(F)(F)F)cc1)c1ccncc1 (stereo not drawn)	> 100 µM
O=c1oc(-c2ccccc2)c(-c2ccccc2)n1-c1ccc(Br)cc1	> 100 µM
CCOc1cc2c(cc1OC(C)=O)C(=O)CC[C@H]1C3CC[C@H](OC(C)=O)[C@@]3(C)CC[C@H]21 (stereo partly drawn)	> 100 µM
C=CCCCC1CCCNC1=S (stereo not drawn)	> 100 µM
CC12c3c4cc(Br)cc3Oc3cc(Br)cc(c31)Oc1cc(Br)cc(c12)O4	> 100 µM
NC(CCC(=O)O)(CCC(=O)O)CCC(=O)O	> 100 µM
CCOC(=O)Nc1nn(C)c(=NCc2ccccc2)s1	> 100 µM
COc1cc(Oc2nc3c(N)cc(C(F)(F)F)cc3nc2-c2ccccc2)cc(OC)c1OC	> 100 µM
CC(C)(CO)NC(=O)Nc1c(C(F)(F)F)cc(-c2ccccc2)[nH]c1=O	> 100 µM
CCc1nnc(-c2nsc3ccccc23)s1	> 100 µM
C/C=C/[C@@H]1OC(=O)C2=C[C@@H](O)[C@@H](/C=C/C)O[C@H]21	> 19.7 µM
N.N.NCCCCCCN.O=C([O-])CC(=O)[O-].O=C([O-])CC(=O)[O-].[Pt+4].[Pt+4]	> 100 µM
O=C(CNC(=O)OCc1ccccc1)NCCCCC(NC(=O)OCc1ccccc1)C(=O)NC(CCCCNC(=O)CNC(=O)OCc1ccccc1)C(=O)OCc1ccccc1 (stereo not drawn)	> 62.5 µM
COC(=O)C1=C(C(=O)OC)SC(=C(N=Nc2ccccc2)c2ccccc2)S1	> 100 µM
CC1=N[C@](C)(C2CC3C=CC2C3=O)COC1=O (stereo partly drawn)	> 100 µM
CC(C)(C)OC(=O)N/N=C(/N)Cc1ccccc1	> 100 µM
c1ccc(P(CCP(CCP(c2ccccc2)c2ccccc2)c2ccccc2)CCP(c2ccccc2)c2ccccc2)cc1 (stereo not drawn)	5.85 µM
O=C(CCCN1CCC2(CC1)CC(=O)N(N1CCCCCC1)C2=O)c1ccc(F)cc1	> 100 µM
CC(C)N1C(NNC(=O)c2cnccn2)=NS(=O)(=O)c2ccccc21	> 100 µM
O=C1CCCCC/C1=C\c1ccc(Cl)cc1	95.1 µM
O=c1oc2c(ccc3ccccc32)cc1C1=CSC2=NCCN12	> 100 µM
Nc1n[nH]c2ccc([C@@H]3Nc4ccc5[nH]ncc5c4[C@H]4C5C=CC(C5)[C@@H]34)cc12 (stereo partly drawn)	40.7 µM
O=c1cc(N=Nc2ccc(O)cc2)[nH]c(=O)[nH]1	> 100 µM
CC(C)C12C=CC(C)(CC1)n1c(=O)c3cc4ccccc4cc3c(=O)n12 (stereo not drawn)	> 100 µM
c1ccc(C2OCC(OC3CCCCO3)CO2)cc1 (stereo not drawn)	68.2 µM
CCNCCNc1cc(C2CCCCC2)c(C#N)c2nc3ccccc3n12	4.97 µM
